We begin with a simple list: items and their reported Selectivity Index.
Experiment: Selectivity index, ratio of ED50 for human KB cells to IC50 for chloroquine-resistant Plasmodium falciparum W2
Type: functional
assay-endpoint: Selectivity Index

- compound: "COc1cc2c3c4c1Oc1cc5c(cc1O4)[C@H](Cc1ccc(O)c(c1)Oc1ccc(cc1)C[C@@H]3NCC2)N(C)CC5"
  assay-endpoint: "Selectivity Index"
  censoring-qualifier: "="
  endpoint-value: 14
- compound: "COc1cc2ccnc3c2cc1Oc1cc(ccc1O)C[C@H]1c2c(cc(OC)c(c2O)OCc2ccc(cc2)C3)CCN1C"
  assay-endpoint: "Selectivity Index"
  censoring-qualifier: ">"
  endpoint-value: 580
- compound: "C=C[C@H]1CN2CC[C@H]1C[C@H]2[C@H](O)c1ccnc2ccc(OC)cc12"
  assay-endpoint: "Selectivity Index"
  censoring-qualifier: ">"
  endpoint-value: 222
- compound: "COc1ccc2cc1Oc1ccc(cc1)C[C@H]1c3c(cc(OC)c(O)c3Oc3cc4c(cc3OC)CCN(C)[C@H]4C2)CCN1C"
  assay-endpoint: "Selectivity Index"
  censoring-qualifier: "="
  endpoint-value: 54
- compound: "COc1ccc2cc1Oc1ccc(cc1)C[C@@H]1c3cc(c(OC)cc3CCN1C)Oc1c(OC)c(OC)cc3c1[C@@H](C2)N(C)CC3"
  assay-endpoint: "Selectivity Index"
  censoring-qualifier: "="
  endpoint-value: 22
- compound: "COc1ccc2cc1Oc1ccc(cc1)C[C@H]1c3c(cc(O)c4c3Oc3cc5c(cc3O4)CCN(C)[C@H]5C2)CCN1C"
  assay-endpoint: "Selectivity Index"
  censoring-qualifier: "="
  endpoint-value: 54
- compound: "COc1ccc2cc1Oc1ccc(cc1)C[C@H]1c3c(cc(OC)c(OC)c3Oc3cc4c(cc3OC)CCN(C)[C@@H]4C2)CCN1C"
  assay-endpoint: "Selectivity Index"
  censoring-qualifier: "="
  endpoint-value: 40
- compound: "COc1ccc2cc1Oc1ccc(cc1)C[C@@H]1NCCc3cc(OC)c(cc31)Oc1c(O)c(OC)cc3c1[C@@H](C2)N(C)CC3"
  assay-endpoint: "Selectivity Index"
  censoring-qualifier: "="
  endpoint-value: 12
- compound: "C[C@@H]1CC[C@H]2[C@@H](C)C(=O)O[C@@H]3O[C@@]4(C)CC[C@@H]1[C@]32OO4"
  assay-endpoint: "Selectivity Index"
  censoring-qualifier: ">"
  endpoint-value: 4860
- compound: "COc1cc2c3cc1Oc1c(O)c(OC)cc4c1[C@H](Cc1ccc(O)c(c1)Oc1ccc(cc1)C[C@@H]3N(C)CC2)N(C)CC4"
  assay-endpoint: "Selectivity Index"
  censoring-qualifier: "="
  endpoint-value: 6
- compound: "COc1cc2c3c(c1O)Oc1cc4c(cc1O)CCN(C)[C@H]4Cc1ccc(O)c(c1)Oc1ccc(cc1)C[C@@H]2NCC3"
  assay-endpoint: "Selectivity Index"
  censoring-qualifier: "="
  endpoint-value: 11
- compound: "COc1cc2c3cc1Oc1cc(ccc1O)C[C@H]1c4c(cc(OC)c(c4O)OCc4ccc(cc4)CC3NCC2)CCN1C (stereo partly specified)"
  assay-endpoint: "Selectivity Index"
  censoring-qualifier: "="
  endpoint-value: 43.2
- compound: "COc1ccc2cc1Oc1ccc(cc1)C[C@H]1c3cc(c(OC)cc3CCN1C)Oc1c(O)c(OC)cc3c1[C@@H](C2)NCC3"
  assay-endpoint: "Selectivity Index"
  censoring-qualifier: "="
  endpoint-value: 50
- compound: "COc1cc2c(cc1O)[C@H](Cc1ccc(OC)c(Oc3ccc(C[C@H]4c5cc(OC)c(OC)cc5CCN4C)cc3)c1)N(C)CC2"
  assay-endpoint: "Selectivity Index"
  censoring-qualifier: "="
  endpoint-value: 75
- compound: "COc1ccc2cc1Oc1cc3c(cc1OC)CCN=C3Cc1ccc(cc1)Oc1c3c(cc4c1[C@@H](C2)N(C)CC4)OCO3"
  assay-endpoint: "Selectivity Index"
  censoring-qualifier: ">"
  endpoint-value: 16.1
- compound: "COc1ccc2cc1Oc1ccc(cc1)C[C@H]1c3c(cc4c(c3Oc3cc5c(cc3OC)CCN(C)[C@@H]5C2)OCO4)CCN1C"
  assay-endpoint: "Selectivity Index"
  censoring-qualifier: "="
  endpoint-value: 20
